- system under test: T1, human PD-L1 expressed on cells (HCC827, NCI-H292, CHO-PD-L1, engineered CHO-K1) (human, UniProt Q9NZQ7 19-290)
- T1 construct: whole, on cells; Endogenous on the human lung lines HCC827 and NCI-H292; transfected on CHO cells; also called PD-L1 on HCC827; PD-L1 on NCI-H292
- T1 sequence (Q9NZQ7 19-290, change not shown): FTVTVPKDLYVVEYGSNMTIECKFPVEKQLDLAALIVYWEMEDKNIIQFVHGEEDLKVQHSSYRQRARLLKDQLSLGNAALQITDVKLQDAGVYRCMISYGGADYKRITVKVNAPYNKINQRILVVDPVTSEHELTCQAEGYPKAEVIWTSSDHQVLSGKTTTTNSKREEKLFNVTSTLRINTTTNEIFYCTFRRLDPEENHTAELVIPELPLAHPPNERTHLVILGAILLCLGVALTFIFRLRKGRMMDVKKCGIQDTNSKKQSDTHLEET
- procedure text: flow cytometry on NCI-H292 cells, apparent Kd
Entries and their measured pKd follow.
Notebook: values listed as pKd are -log10 of the concentration (mol/L).

Some entries whose results are on file:
771-hIgG1 (chimeric PAL771) (antibody, V domains shown) VH: EVQLQESGAELVKPGASVKLSCTASGFNIKDTYMHWVKQRPEQGLEWIGRIDPANGNTKYDPKFPGKATITADTSSNTAYLQLSSLTSEDAAVYYCARPFNYRFYDVYYFDYWGQGTTLTVST VL: QIVLTQSPAIMSASPGEKVTMTCSASSSVSYMYWYQQKPGSSPRLLIYDTSNLASGVPLRFSGSGSGTSYSLTLSRMEAEDAATYYCQQWSTYPLTFGAGTKLELK ... 8.93
769-hIgG1 (chimeric PAL769) (antibody, V domains shown) VH: EVQLQESGAELVKPGASVTLSCTASGFNIKDTYMHWVKQRPEQGLEWIGRIDPANDNTKYDPKFQDKATITADTSSDTAYLRLSSLTSEDTAVYYCAREGYGGSYGEGYWGQGTTLTVSS VL: SIVMTQTPKFLLVSAGDRVTITCKASQSVSNDVIWYQQKPGQSPKLLIYYASIRFTGVPDRFAGSGYGTDFTFTINTVQAEDLAVYFCQQDYNSPWTFGGGTKLEIK ... 9.92
785-hIgG1 (chimeric PAL785) (antibody, V domains shown) VH: EVQLQESGPELVKPGTSVKMSCKASGYTFTSYVMHWVKQRPGQGLEWIGYINPYNDGSKYNEKFKGKATLTSDTSSSTAYMELSSLTSEDSAVYYCAKQTLDFWGQGTSVTVST VL: DIVLTQSPASLAVSLGQRATISCRASESVEFYGTTLMQWYQQKPGQPPKLLIYAASNVESGVPARFSGSGSGTDFSLNIHPVEEGDIGMYFCQQSRKVPYTFGGGTKLEIK ... 9.72

Just so you know, measured pKd for 788-hIgG1 (chimeric PAL788) (antibody, V domains shown) VH: QVQLQQPGAELVKPGASVKLSCKASGYTFTSNWMNWVKQRPGRGLEWIGRIHPSDSETHYHQKFKSKATLTVDKSSSTAYIQLSSLTSEDSAVYYCAHSSGDYGRDYWGQGTTLTVSS VL: NIVLTQSPASLAVSLGQRATISCRASESVDSYGNSFMHWYQQKPGQPPKLLIYLASNLQSGVPARFSGSGSRTDFTLTIDPVEADDAATYYCQQNNEDPWTFGGGTKLEIK came out at 8.77

// sample 752-hIgG1 (chimeric PAL752) (antibody, V domains shown) VH: EVQLQESGAELARPGASVKLSCKASGHAFTSDSINWVKQRIGQGLEWIGEIYPRSGNPYYNEKFKGKATLTADKSSSTAYMELRSLTSEDSAVYFCATDYYGRYFDVWGTGTTVTVSS VL: DIQMTQSSFSFSVSLGDRVTIICKASEDIYNRLAWYQQKPGNTPRLLISGATSLETGVPSRFSGSGSGKDYTLSITSLQTEDVATYYCQQYWSTPWTFGGGTKLEIK , its pKd was 8.30

Data provenance is patent US20240067729A1.
